tested on: MS2 coat protein; assay: apparent KD of MS2 coat protein, switch OFF state (with FMN for OFF switches, without FMN for ON switches); designed switch direction (-1 OFF switch, 1 ON switch): -1; higher = weaker reporter binding; settings: FMN input: 0 or 200 uM; Eterna round: R93 (includes R88 designs)
Answer -1 if apparent KD of MS2 coat protein is under 30 nM, and 1 if it is 30 nM or more.

>  <sequenceContent>
AAAAAACAUGAGGAUCACCCAUGUGAGGAUAUGAACGAAAAUAAAUAAAAAUAAAAGUUCAGAAGGCACAAAAA [66%, Wbt, 10]

>  <assignedLabel>
1

$$$$
>  <sequenceContent>
AGCUAGACAGGAUAUACGUAAAUGUCGAAAGACGUAUAGGGACAUGAGGAUCACCCAUGUAGAAGGGUCUAGCA [Diamond 100]

>  <assignedLabel>
1

$$$$
>  <sequenceContent>
ACCUUACAUGAGGAUCACCCAUGUUAGGAUAUCUCGCUCUCGCAGUCACAGCGCAAGCAGAGAAGGGACACGGG [Maretien]

>  <assignedLabel>
1

$$$$
>  <sequenceContent>
GUGUACAGAGGAUAUAUAUGAGCAUGGAAACAUGCAUCCUCACAUGAGGAUCACCCAUGUAGAAGGCUGUACAC [Ex2: 704]

>  <assignedLabel>
1

$$$$
>  <sequenceContent>
CAAAGGUGAGGAUAUACGAGGAUAUGACGAAAGUCAUAAAAACAUGAGGAUCACCCAUGUAGAAGGCACCACAA [E2 64% 5]

>  <assignedLabel>
1

$$$$

--- query ---
Confirm if apparent KD of MS2 coat protein reported for the sequence AAUAAGAGAGGAUAUACAUAAUAAAAGAAAAGAAACAAAGAACAUGAGGAUCACCCAUGUAGAAGGCUCAAUAA [Sonbef] is 30 nM or above. -1

Each recorded value in this set is attributed to the supplement of paper PMC9170038.
